FYI, the data here is from PubChem BioAssay (NCI).

tested on: DU-145 prostate; test: NCI tumour cell line growth inhibition, 48 h
endpoint.label: log10(TGI) (log10 of the value in µM)

                                   compound  measurement_target  measurement
0  CCCc1cc(=O)oc2c3c(c4c(c12)OC(C)(C)C=C4)O[C@@H](C)[C@H](C)C3=O     DU-145 prostate         1.79
1  CN(C)c1ccc(C(=C2C=CC(=[N+](C)C)C=C2)c2ccc(N(C)C)cc2)cc1 (tested in a mixture with another compound)     DU-145 prostate         0.11
2  CC(=O)c1c(C(F)(F)F)n([O-])c2ccc(Cl)cc2[n+]1=O     DU-145 prostate        -0.24
3  Cc1nc2sccn2c(=O)c1CCN1CCC(=C(c2ccc(F)cc2)c2ccc(F)cc2)CC1     DU-145 prostate         1.48
4  NCCCNc1nc2ccccc2c2c(=O)c3cc(C(F)(F)F)ccc3sc12     DU-145 prostate         0.51

* * *

We begin with a simple list: items and their reported GI50.
system: SF-268 CNS; assay: NCI tumour cell line growth inhibition, 48 h
endpoint.label: GI50

>>> df
                                   molecule  measurement
0  CCC(C)n1cc(C)c2c(C(=O)NCc3c(C)cc(C)[nH]c3=O)cc(Br)cc21 (stereo not drawn)      72.3 µM
1  O=C1C(Br)=CC2(C=C1Br)CCN=c1c2c(O)c2nc3ccccc3c3ccnc1c23     0.672 µM
2      COc1ccc(NC(=O)n2nc(N)c3ccccc32)cc1OC      49.6 µM

* * *

system: TK-10 renal; assay: NCI tumour cell line growth inhibition, 48 h
endpoint.label: TGI

>>> df
                                   molecule  measurement
0  CCCN(CCCC(NC(C)=O)C(=O)NCc1ccccc1)C(=O)NC (stereo not given)     > 100 µM
1  COc1ccccc1-n1c(-c2cc(O)ccc2C)cn2c3c(=O)[nH]c(=O)n(C)c3nc12      48.7 µM
2        N#Cc1c(-c2ccc(Cl)cc2)n(O)c2ccccc12      9.16 µM
3  O=C(CC1(O)C(=O)Nc2ccccc21)c1ccccc1Cl (stereo not given)     > 100 µM
4  CC1=C2c3c(C)ccc4ccc(C)c(c34)C2(O)C(C)C1=O (stereo not given)     > 100 µM
5  CC(C)(C)NN=C1C(C)(C)C(=NNC(C)(C)C)C1(C)C     > 100 µM
6   O=C1Nc2cccc(Cl)c2/C1=C\c1c(Cl)nc2sccn12      24.6 µM
7       COc1ccc(C(=O)c2ccc(OC)c(OC)c2OC)cc1     > 100 µM
8  CC(C)[C@@]12C[C@@H](OC(=O)[C@H]3CO3)[C@@](C)(O1)[C@@H]1CC[C@@H](C)[C@H]1[C@@H]2OC(=O)/C=C/c1ccccc1     > 100 µM
9  COCC1OC(OC2C3=C(C(C)C)CCC3(C)/C=C3\C(CCC3(O)COC)C(C)C2O)C(O)C2OC3OC12OC3(C)C1CO1 (stereo not given)     > 100 µM

* * *

We begin with a simple list: items and their reported TGI.
tested on: HOP-92 NSCLC; test: NCI tumour cell line growth inhibition, 48 h
endpoint.label: TGI

                                    compound  measurement
 0  CC(C)CCOc1ccc(-c2n[nH]c(C(F)(F)F)c2-c2cncc(C#N)c2)c(O)c1      3.33 µM
 1             Cc1c(CCOC=O)c(=O)[nH]c2nncn12     > 100 µM
 2  Cc1nc2sccn2c(=O)c1CCN1CCC(=C(c2ccc(F)cc2)c2ccc(F)cc2)CC1      19.2 µM
 3                     O=C1OCC(c2cccs2)=C1Cl     > 100 µM
 4  Brc1ccc(-c2nnc(-c3nn(-c4ccccc4)c4nc5ccccc5nc34)o2)cc1     > 100 µM
 5  COC(=O)C(O)P(=O)(OC)OC (configuration not stated)     > 100 µM
 6        Cn1c(=O)cc(NCc2ccc(Cl)cc2)[nH]c1=O        45 µM
 7  Clc1ccc(Oc2ccc(N=Cc3ccc(Cl)cc3Cl)cc2Cl)cc1     > 100 µM
 8       OCCCN=NNc1ccc(-c2nc3ccccc3[nH]2)cc1      66.5 µM
 9  CC(OC(=O)NCn1cc(-c2ccccc2)nn1)c1ccccc1 (configuration not stated)     > 100 µM
10  O=c1[nH]c(Nc2cccc(C(F)(F)F)c2)nc2nc[nH]c12     > 100 µM
11  COc1cc2c(c(C)c1O)[C@H]1COc3ccccc3[C@H]1O2      47.6 µM
12  CCCCC(=O)Nc1ccc2cc(C(=O)OC)c(ON3C(=O)c4ccccc4C3=O)nc2n1      65.3 µM
13         CCOC(=O)c1csc(NC(=O)CCN2CCCCC2)n1     > 100 µM
14      CCCn1c(SCC)c2ccccc2c1-c1nc(F)nc(F)n1     > 100 µM
15  COc1cc2c(cc1OCCOS(C)(=O)=O)N=C[C@@H]1CCCN1C2=O      50.6 µM
16  O=C(O)C1CCCN1Cc1cc2ccccc2c2ccccc12 (configuration not stated)     > 100 µM
17  O=[N+]([O-])c1ccc(C2=NOC(c3ccccc3F)N2C23CC4CC(CC(C4)C2)C3)cc1 (configuration not stated)     > 100 µM
18  CCCN(CCCC(NC(C)=O)C(=O)NCc1ccccc1)C(=O)NC (configuration not stated)     > 100 µM
19  N/N=C1\C(=O)N(C2CCCCC2)C(=O)C1C(=O)NC1CCCCC1 (configuration not stated)     > 100 µM
20  O=C(CC1(O)C(=O)Nc2ccccc21)c1ccccc1Cl (configuration not stated)     > 100 µM
21  CCCC/C=C/C1Cc2ccccc2CN1S(=O)(=O)c1ccc(C)cc1 (configuration not stated)      8.82 µM

* * *

We begin with a simple list: items and their reported TGI.
system: TK-10 renal; test: NCI tumour cell line growth inhibition, 48 h
endpoint.label: TGI

>>> print(df.to_string())
                                   compound  measurement
0   CCCCCCCC/C=C/CCCCCCCC1=NCC[N+]1(CCO)CCO      4.39 µM
1  CCOc1ccc([C@@H]2[C@@H](Oc3ccccc3)C(=O)N2c2cc(OC)c(OC)c(OC)c2)cc1     > 100 µM
2  O=C(O)C1C(C(=O)Nc2ccc3c(c2)Cc2ccccc2-3)C2(Cl)C(Cl)=C(Cl)C1(Cl)C2(Cl)Cl (stereo not given)      68.1 µM
3    CC(C)c1ccccc1NC(=O)C(=O)Cc1nc2ccccc2s1     > 100 µM
4  CN(C)c1ccc(N=Cc2c([O-])ccc3ccccc23)cc1.[C-]#[O+].[C-]#[O+].[Ir]      53.3 µM
5  O=C(O)C1CCCN1Cc1cc2ccccc2c2ccccc12 (stereo not given)     > 100 µM
6  O=C1/C(=C\c2cccc(Oc3ccccc3)c2)S(=O)(=O)C(c2ccccc2)N1c1ccc(Cl)cc1 (stereo not given)     > 100 µM
7  COCC1CCCN1c1ccc(/C=C(/C#N)C(N)=S)cc1 (stereo not given)     > 100 µM
8          O=C1CN2Cc3cc(N4CCOCC4)ccc3N=C2N1     > 100 µM
9  N#Cc1c(-c2ccc([N+](=O)[O-])cc2)cc(-c2ccc(Nc3ccnc4cc(C(F)(F)F)ccc34)cc2)nc1N    > 69.8 µM

* * *

test system: IGROV1 ovarian; experiment: NCI tumour cell line growth inhibition, 48 h
endpoint.label: GI50

                                   compound  measurement
0  CCC[CH2][Sn]([CH2]CCC)([O]C(=O)c1cc(F)cc(F)c1)[O]C(=O)c1cc(F)cc(F)c1      1550 nM
1  O=[N+]([O-])c1ccc(-c2nc(-c3ccccc3)c(-c3ccccc3)n2-c2ccccc2)cc1      2420 nM
2  C=C(C)[C@@H]1CC[C@]2(C)[C@H](C(=O)C=C3[C@@H]4C[C@](C)(C(=O)N5CCN(C)CC5)CC[C@]4(C)CC[C@]32C)[C@@]1(C)CCC#N      6580 nM
3       OCCCN=NNc1ccc(-c2nc3ccccc3[nH]2)cc1      5260 nM
4  CN(C)c1ccc(C(=C2C=CC(=[N+](C)C)C=C2)c2ccc(N(C)C)cc2)cc1 (tested in a mixture with another compound)       161 nM
